Please provide measured IC50 for the entries that follow.
- system.tested: T1, HLA-DR4w4 (DRB1*0401), purified from cell line PREISS (human)
- T1 chain 1: not shown
- T1 chain 2: not shown
- assay.name: competition vs 125I-peptide, purified class II MHC
Non-standard residues stand in square brackets, D forms with d. No end group written: not given here. 14 = not defined here
Give the quantity in nM, number only.

I have this binder here, [dA]K[14]VYAWTLKAA[dA]-NH2 (reading uncertain; also: printed as aK(14)VYAWTLKAAa-NH2) [peptide 965.052, aK(14)…a-NH2] , and I need its recorded IC50. 0.8

I have this binder here, [dA]K[14]VAAHTLKAA[dA]-NH2 (reading uncertain; also: printed as aK(14)VAAHTLKAAa-NH2) [peptide 955.15 (as printed), aK(14)…a-NH2] , and I need its recorded IC50. 3.2

I have this binder here, [dA]K[14]VWANTLKAA[dA]-NH2 (reading uncertain; also: printed as aK(14)VWANTLKAAa-NH2) [peptide 965.031, aK(14)…a-NH2] , and I need its recorded IC50. 2.1

I have this binder here, [dA]K[14]VWANTLKAA[dA]-NH2 (reading uncertain; also: printed as aK(14)VWANTLKAAa-NH2) [peptide 965.032, aK(14)…a-NH2] , and I need its recorded IC50. 0.7

I have this binder here, [dA]K[14]VKAWTLKAA[dA]-NH2 (reading uncertain; also: printed as aK(14)VKAWTLKAAa-NH2) [peptide 965.022, aK(14)…a-NH2] , and I need its recorded IC50. 0.8

I have this binder here, [dA]K[14]VYAWTLKAA[dA]-NH2 (reading uncertain; also: printed as aK(14)VYAWTLKAAa-NH2) [peptide 965.051, aK(14)…a-NH2] , and I need its recorded IC50. 0.3

I have this binder here, [dA]K[14]VKANTLKAA[dA]-NH2 (reading uncertain; also: printed as aK(14)VKANTLKAAa-NH2) [peptide 965.012, aK(14)…a-NH2] , and I need its recorded IC50. 2.1

Cited source for all entries: patent US6413935
